Biological target: T1, Human IL-11 (human, UniProt P20809 22-199); further: test concentration or dose not given here
T1 sequence: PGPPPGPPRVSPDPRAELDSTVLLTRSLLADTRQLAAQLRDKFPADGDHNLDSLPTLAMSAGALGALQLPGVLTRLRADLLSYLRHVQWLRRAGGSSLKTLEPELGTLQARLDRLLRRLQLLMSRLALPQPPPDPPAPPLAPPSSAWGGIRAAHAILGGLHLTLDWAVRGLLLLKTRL
Test: cell-based or functional assay
readout-name: MMP2 production, Experiment 2 (human atrial fibroblasts + TGFB1)
Form field: result (number plus unit)

Input: Using the record for YU100-G01 (antibody) QVQLVQSGGGVVQPGRSLRLSCAASGFTFSSYGMHWVRQAPGKGLEWVAVISYDGSNKYYADSVKGRFTISRDNSKNTLYLQMNSLRAEDTAVYYCAKIGATDPLDYWGQGTLVTVSSGSASAPKLEEGEFSEARVQSALTQPRSVSASPGQSVTISCTGTSSDVGAYNYVSWYQQHPGKAPKLMLYDVNKRPSGVPDRFSGSKSGNTASLTISRLQAEDEADYYCCSYAGSYTWVFGGGTKLTVL , report its MMP2 production, Experiment 2 (human atrial fibroblasts + TGFB1).
Output: 49.7 ng/mL

The measured values listed here are drawn from patent US20210230266A1.
